- experimental_details: growth suppression of yeast trafficking mutant, preliminary HTS, modulators of trafficking downstream of Golgi apparatus project, 1536-format plate, OD 615 nm (AID 637); also: test concentration not given here
- assay_context: yeast transport mutant growth, absorbance 615 nm, 18 h; active compounds read high
Consider the following compounds; for each one, report its inhibition.
Your answer is read as %, so omit the unit and give the number.

Need inhibition of O=C(NCC1COCCO1)C1CCN(S(=O)(=O)c2ccccc2)CC1 (configuration not stated) , thanks.
-7.26

Quick one: inhibition of CCNC(=O)N(C)c1nncnc1C(=O)NC ?
5.57

Name the recorded inhibition for COC(=O)C1CCN(C(=O)NC(C)(C)C)CC1 .
8.73

Look at this compound and give its reported inhibition. Cc1c(C(=O)OCC(C)C)[nH]c2c1C(=O)CC(c1ccco1)C2 (configuration not stated)
-3.28

Need inhibition of Cc1cc(OCC(=O)Nc2ccc3oc(-c4ccncc4)nc3c2)ccc1Cl , thanks.
8.85

Need inhibition, item Cc1ccc(-n2ncc3c(=O)[nH]c(SCC(=O)N4CCN(c5ccccc5)CC4)nc32)cc1
-1.17

Field request: inhibition | item: CN(Cc1ccco1)C(=O)Cn1c(=O)oc2cc(S(=O)(=O)NCc3ccccc3)ccc21
1.8

I am curious: what inhibition value has been reported for O=C(COc1ncnc2ccccc12)NCc1ccc2c(c1)OCO2 ?
4.92

Entry O=C(OCn1nnc2ccccc2c1=O)C1CCN(S(=O)(=O)c2cccs2)CC1 has what inhibition?
-4.67

inhibition lookup needed for Cc1cc(C)cc(NC(=O)C2CCCN(c3nccc(C)n3)C2)c1 (configuration not stated) , thanks.
-5.25

Query (compound): NC(=O)CSc1nnc(-c2cc3ccccc3o2)n1Cc1ccccc1 ; field requested: inhibition
0.67

Form field: reported inhibition of O=C(COC(=O)C1CCN(S(=O)(=O)c2cccs2)CC1)c1cc2ccccc2o1
-0.63

Entry O=C(C1CCN(S(=O)(=O)Cc2ccccc2)CC1)N1CCN(c2ncccn2)CC1 has what inhibition?
-2.36

What measured inhibition goes with COc1ccc(-n2c(Cc3cccn3C)nnc2SCC(=O)NCC2CCCO2)cc1 (configuration not stated) ?
3

Which inhibition value belongs to O=C(C1CCCCC1)N1CCC(c2nc3c(nnn3Cc3c(F)cccc3Cl)c(=O)[nH]2)CC1 ?
-6.39

Endpoint output: inhibition of COc1cc(C2c3c(n[nH]c3C)C(=O)N2c2ccc(Br)cc2)ccc1O (configuration not stated) . Value?
-1

Which value of inhibition has been reported for CCOc1ccc2c(c1)sc1nc(C(=O)OC)cc(=O)n12 in the records?
-6

Using the record for O=C(O)c1c(Cl)c(Cl)c(Cl)c(Cl)c1C(=O)N1CCOCC1 , report its inhibition.
0.16

// lookup inhibition for O=S(=O)(c1ccccc1)c1nc(-c2ccco2)oc1NCCCN1CCOCC1
-3.23

Can you share its inhibition? I mean this compound: O=C(NCCC1=CCCCC1)N[C@@H](Cc1ccccc1)C(=O)O
0.16

If you can, please state the reported inhibition value of CC(=O)N(CCN(C(C)=O)c1ccccc1)c1ccccc1 .
-1.64

Data request, read-out inhibition, for O=C(Nc1ccc2c(c1)OCO2)c1nn(-c2ccccc2)c(=O)c2ccccc12
1.75
